From: paper PMC2756588

SPOT intensity overview
biological target: Sho1, P40073; assay: SPOT array; settings: median of control spots 1148
Sequence (P40073 287-367): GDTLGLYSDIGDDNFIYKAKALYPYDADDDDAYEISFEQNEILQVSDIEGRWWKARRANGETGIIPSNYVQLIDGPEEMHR
Please respond with just the number, no unit label.

Record excerpt, results attached:
INSERT INTO assay_data (binder, property, numeric_value) VALUES
  ('FIRKRAPTPPAPSRS', 'SPOT intensity', 90),
  ('QQEQNTPPLPPKPKS', 'SPOT intensity', 14),
  ('DRIRMFIRFPKFLLE', 'SPOT intensity', 71);

--- query ---
Bench note: what SPOT intensity did VDFTLPPPPPPPGLD show?
0
